The measured values listed here are drawn from patent US20230286947A1.

Assay explanation: Liver microsomal stability experiment (rat)
Assay type: in vitro ADME
Assay conditions: SD, pH 7.4; rat liver microsomes, NADPH; read-out: MMS (rat) T1/2
Measurement type: half-life at 1 µM (h)

>>> endpoint_result("COc1cc(C)c2[nH]ccc2c1CN1CC[C@H](OCC2CCC2)C[C@H]1c1ccc(C(=O)O)cc1")
0.986

A: COc1cc(C)c2[nH]ccc2c1CN1CC[C@H](OCC2CC2)C[C@H]1c1ccc(C(=O)O)cc1
B: COc1cc(C)c2[nH]ccc2c1CN1CC[C@H](OC2CCC2)C[C@H]1c1ccc(C(=O)O)cc1
Larger number for half-life at 1 µM: A , or B ? Mark your answer with the label of the selected entry.
A
(A: 9.13 h, B: 3.68 h)

====

Assay explanation: PK experiment of single intragastric administration to rats
Format: in vivo
Assay conditions: male, Wistar Han, plasma, po, rat, 3 mg/kg, mean
Measurement type: half-life (h)

>>> endpoint_result("CCO[C@H]1CCN(Cc2c(OC)cc(C)c3[nH]ccc23)[C@H](c2ccc(C(=O)O)cc2)C1 [Control compound, reference compound]")
2.42

P: COc1cc(C)c2[nH]ccc2c1CN1CC[C@H](OCC2CC2)C[C@H]1c1ccc(C(=O)O)cc1 [Example 5]
Q: COc1cc(C)c2[nH]ccc2c1CN1CC[C@H](OCC2CCC2)C[C@H]1c1ccc(C(=O)O)cc1 [Example 6]
Larger number for half-life: P , or Q ? Mark your answer with the label of the selected entry.
Q

====

Assay explanation: PK experiment of single intragastric administration to rats
Assay type: in vivo
Assay conditions: male, Wistar Han, plasma, po, rat, 3 mg/kg, mean
Protocol: Six- to nine-week-old male Wistar han rats (from Shanghai Sippe-Bk Lab Animal Co., Ltd.) were fasted overnight. Each group consisted of 3 rats, and they were given the control compound, the compound of Example 5 and the compound of Example 6, respectively, by intragastric administration at 3 mg/kg at a volume of 10 mL/kg. […] The plasma samples were analyzed by LC-MS/MS. […]
Measurement type: Cmax (ng/mL)

P: COc1cc(C)c2[nH]ccc2c1CN1CC[C@H](OCC2CCC2)C[C@H]1c1ccc(C(=O)O)cc1
Q: COc1cc(C)c2[nH]ccc2c1CN1CC[C@H](OCC2CC2)C[C@H]1c1ccc(C(=O)O)cc1
Larger number for Cmax: P , or Q ? Mark your answer with the label of the selected entry.
Q

====

Entries and their pIC50
Subject of test: complement factor B in human serum (Homo sapiens)
Sequence (P00751 26-764): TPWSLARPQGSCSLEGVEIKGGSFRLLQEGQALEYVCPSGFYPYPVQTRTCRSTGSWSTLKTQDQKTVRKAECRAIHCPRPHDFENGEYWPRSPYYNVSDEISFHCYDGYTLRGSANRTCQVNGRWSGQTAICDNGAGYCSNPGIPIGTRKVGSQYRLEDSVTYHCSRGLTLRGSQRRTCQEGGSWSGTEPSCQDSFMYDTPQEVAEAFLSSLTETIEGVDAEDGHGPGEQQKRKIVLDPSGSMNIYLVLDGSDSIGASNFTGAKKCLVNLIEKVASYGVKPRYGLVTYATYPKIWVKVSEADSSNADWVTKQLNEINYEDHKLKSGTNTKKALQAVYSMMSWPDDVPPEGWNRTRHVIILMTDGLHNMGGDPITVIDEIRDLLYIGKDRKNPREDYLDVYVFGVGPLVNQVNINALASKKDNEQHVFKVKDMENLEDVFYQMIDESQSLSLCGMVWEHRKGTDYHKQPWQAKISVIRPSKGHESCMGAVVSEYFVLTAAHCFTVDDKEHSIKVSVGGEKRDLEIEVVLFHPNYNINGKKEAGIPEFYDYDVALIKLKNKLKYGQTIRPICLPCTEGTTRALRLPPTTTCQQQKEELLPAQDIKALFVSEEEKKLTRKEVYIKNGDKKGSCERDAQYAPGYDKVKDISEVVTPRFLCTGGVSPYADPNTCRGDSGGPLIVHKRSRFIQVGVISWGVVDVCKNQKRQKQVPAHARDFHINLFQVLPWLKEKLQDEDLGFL
Assay explanation: Complement hemolytic activity assay (rabbit erythrocytes, normal human serum)
Assay conditions: rabbit erythrocytes, normal human serum, 37° C.; read-out: Hemolysis IC50
Units for pIC50: none; it is -log10 of a concentration expressed in mol/L.

As a guide, the following entries are already answered.
>>> endpoint_result("COc1cc(C)c2[nH]ccc2c1CN1CCC(C(F)F)CC1c1ccc(C(=O)O)cc1 (centres unmarked)")
6.21
>>> endpoint_result("COc1cc(C)c2[nH]ccc2c1CN1CC[C@H](OCC2CCC2)C[C@H]1c1ccc(C(=O)O)cc1")
6.66
>>> endpoint_result("COc1cc(C)c2[nH]ccc2c1CN1CC[C@H](OCC2CC2)C[C@H]1c1ccc(C(=O)O)cc1")
7.06
>>> endpoint_result("COc1cc(C)c2[nH]ccc2c1CN1CC[C@H](OCC2CC2)C[C@H]1c1ccc(-c2nn[nH]n2)cc1")
6.50
>>> endpoint_result("COc1cc(C)c2[nH]ccc2c1CN1CCC(C(F)(F)F)CC1c1ccc(C(=O)O)cc1 (centres unmarked)")
6.14
>>> endpoint_result("COc1cc(C)c2[nH]ccc2c1CN1CC[C@H](OC2CC2)C[C@H]1c1ccc(C(=O)O)cc1")
6.66

# pIC50 (compound: COc1cc(C)c2[nH]ccc2c1CN1CC[C@H](OC2CCC2)C[C@H]1c1ccc(C(=O)O)cc1 ) is 6.55

# pIC50 (compound: COc1cc(C)c2[nH]ccc2c1CN1CCC(C)(F)CC1c1ccc(C(=O)O)cc1 (centres unmarked) ) is 6.41

# pIC50 (compound: COc1cc(C)c2[nH]ccc2c1CN1CCC2(CC1c1ccc(C(=O)O)cc1)CC2(F)F (centres unmarked) ) is 6.45

# pIC50 (compound: CCOC1CC(c2ccc(C(=O)O)cc2)N(Cc2c(OC)cc(C)c3[nH]ccc23)C2CC12 (centres unmarked) ) is 6.07

# pIC50 (compound: COc1cc(C)c2[nH]ccc2c1CN1CC[C@H](OC2CC(F)(F)C2)C[C@H]1c1ccc(C(=O)O)cc1 ) is 6.73

# pIC50 (compound: COc1cc(C)c2[nH]ccc2c1CN1CC[C@H](OC(F)(F)F)C[C@H]1c1ccc(C(=O)O)cc1 ) is 6.64

# pIC50 (compound: COc1cc(C)c2[nH]ccc2c1CN1CC[C@H](OCC2CC2(F)F)C[C@H]1c1ccc(C(=O)O)cc1 (some centres unmarked) ) is 6.63

# pIC50 (compound: COc1cc(C)c2[nH]ccc2c1CN1CCC2CC2[C@H]1c1ccc(C(=O)O)cc1 (some centres unmarked) ) is 6.73

====

Assay explanation: PK experiment of single intragastric administration to rats
Type: in vivo
Assay conditions: male, Wistar Han, plasma, po, rat, 3 mg/kg, mean
Measurement type: AUC(0-inf) (ng·h/mL)

>>> endpoint_result("CCO[C@H]1CCN(Cc2c(OC)cc(C)c3[nH]ccc23)[C@H](c2ccc(C(=O)O)cc2)C1 [Control compound, reference compound]")
2730

I: COc1cc(C)c2[nH]ccc2c1CN1CC[C@H](OCC2CC2)C[C@H]1c1ccc(C(=O)O)cc1
II: COc1cc(C)c2[nH]ccc2c1CN1CC[C@H](OCC2CCC2)C[C@H]1c1ccc(C(=O)O)cc1
Form: Entry with minimum AUC(0-inf) (choose one): I / II Mark your answer with the label of the selected entry.
II

====

Assay explanation: PK experiment of single intragastric administration to rats
Format: in vivo
Assay conditions: male, Wistar Han, plasma, po, rat, 3 mg/kg, mean
Measurement type: Tmax (min)

>>> endpoint_result("COc1cc(C)c2[nH]ccc2c1CN1CC[C@H](OCC2CCC2)C[C@H]1c1ccc(C(=O)O)cc1")
15
>>> endpoint_result("CCO[C@H]1CCN(Cc2c(OC)cc(C)c3[nH]ccc23)[C@H](c2ccc(C(=O)O)cc2)C1 [Control compound, reference compound]")
19.8
>>> endpoint_result("COc1cc(C)c2[nH]ccc2c1CN1CC[C@H](OCC2CC2)C[C@H]1c1ccc(C(=O)O)cc1")
15

====

Assay explanation: Liver microsomal stability experiment (human)
Format: in vitro ADME
Assay conditions: pooled liver microsomes, pH 7.4, NADPH, read-out: MMS (human) T1/2
Measurement type: half-life at 1 µM (h)

I: COc1cc(C)c2[nH]ccc2c1CN1CC[C@H](OCC2CCC2)C[C@H]1c1ccc(C(=O)O)cc1
II: COc1cc(C)c2[nH]ccc2c1CN1CC[C@H](OCC2CC2)C[C@H]1c1ccc(C(=O)O)cc1
III: COc1cc(C)c2[nH]ccc2c1CN1CC[C@H](OC2CCC2)C[C@H]1c1ccc(C(=O)O)cc1
Lab note: half-life at 1 µM ranking, ascending, for the listed compounds. Arrange the labels as the request states and list them.
I, III, II
(I: 3.96 h, III: 6.94 h, II: 11.2 h)

====

Assay explanation: PK experiment of single intragastric administration to rats
Assay type: in vivo
Assay conditions: male, Wistar Han, plasma, po, rat, 3 mg/kg, mean
Measurement type: AUC(0-t) (ng·h/mL)

>>> endpoint_result("CCO[C@H]1CCN(Cc2c(OC)cc(C)c3[nH]ccc23)[C@H](c2ccc(C(=O)O)cc2)C1 [Control compound, reference compound]")
2530
>>> endpoint_result("COc1cc(C)c2[nH]ccc2c1CN1CC[C@H](OCC2CCC2)C[C@H]1c1ccc(C(=O)O)cc1 [Example 6]")
2190
>>> endpoint_result("COc1cc(C)c2[nH]ccc2c1CN1CC[C@H](OCC2CC2)C[C@H]1c1ccc(C(=O)O)cc1 [Example 5]")
3120

====

Subject of test: Complement factor B (Homo sapiens, UniProt P00751)
Assay explanation: Optical surface plasmon resonance (SPR) binding capacity assay
Assay conditions: test compound 500 μM; 25° C.; 1:1 binding model
Measurement type: Rmax (RU)

As a guide, the following entries are already answered.
>>> endpoint_result("COc1cc(C)c2[nH]ccc2c1CN1CCC(C(F)(F)F)CC1c1ccc(C(=O)O)cc1 (stereo not shown) [Example 9]")
23.3
>>> endpoint_result("COc1cc(C)c2[nH]ccc2c1CN1CCC(C(F)F)CC1c1ccc(C(=O)O)cc1 (stereo not shown) [Example 10]")
30.7
>>> endpoint_result("COc1cc(C)c2[nH]ccc2c1CN1CCC2(CC1c1ccc(C(=O)O)cc1)CC2(F)F (stereo not shown) [Example 8]")
47.7
>>> endpoint_result("COc1cc(C)c2[nH]ccc2c1CN1CC[C@H](OCC2CC2)C[C@H]1c1ccc(C(=O)O)cc1 [Example 5]")
274.2
>>> endpoint_result("COc1cc(C)c2[nH]ccc2c1CN1CC[C@H](OC2CCC2)C[C@H]1c1ccc(C(=O)O)cc1 [Example 4]")
29.1

A: COc1cc(C)c2[nH]ccc2c1CN1CC[C@H](OC(F)(F)F)C[C@H]1c1ccc(C(=O)O)cc1 [Example 7]
B: COc1cc(C)c2[nH]ccc2c1CN1CC[C@H](OCC2CCC2)C[C@H]1c1ccc(C(=O)O)cc1 [Example 6]
Form: Entry with minimum Rmax (RU) (choose one): A / B Mark your answer with the label of the selected entry.
A
(A: 21.6 RU, B: 106.5 RU)
